- TARGET_OR_TEST_SYSTEM: UniProt P43235
- Sequence (P43235 whole entry): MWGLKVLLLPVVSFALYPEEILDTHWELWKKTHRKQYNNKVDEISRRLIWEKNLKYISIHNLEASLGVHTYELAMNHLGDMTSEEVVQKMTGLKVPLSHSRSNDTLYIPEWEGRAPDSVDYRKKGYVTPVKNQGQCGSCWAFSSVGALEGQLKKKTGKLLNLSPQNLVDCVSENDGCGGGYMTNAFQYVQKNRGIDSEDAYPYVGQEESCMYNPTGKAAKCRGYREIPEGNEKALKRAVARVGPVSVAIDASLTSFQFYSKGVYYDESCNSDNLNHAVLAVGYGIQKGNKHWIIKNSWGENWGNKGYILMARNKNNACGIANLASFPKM
- EXPERIMENTAL_DETAILS: Inhibitory activity tested against Human Cathepsin K using Z-Phe-Arg-pNA as substrate
MEASURED_METRIC: IC50 (nM)

Example results:
N#CN1CCC1
100
N#CN1CCCC1 [CYANO-PYRROLIDINE]
1000

[P] N#CN1CCC(COCc2ccccc2)C1 (centres undefined)
[Q] N#CN1CC(CNC(=O)c2ccccc2)C1
Compare IC50: is it lower for P or for Q ? Select an item and report its label.
Q
(Q: 70 nM, P: 100 nM)
